// provenance: a melting point compilation (Tetko et al.; mined from patent text by program, amines drawn as free bases though some values may be those of a salt)

Some compounds, each annotated with its measured melting point.

Reference set (8 entries):
INSERT INTO assay_data (compound, result) VALUES
  ('CCn1cc(-c2ccccc2)c(=O)c(-c2cccc(C(F)(F)F)c2)c1', '98 to 100 °C'),
  ('O=C(NCCc1c(Cl)cccc1Cl)c1c(Cl)ccc2nc(N3CCC(C(=O)O)CC3)ccc12', '262 to 264 °C'),
  ('COc1cc2nc(SCc3cc(N(C)C)c(Cl)cn3)[nH]c2cc1OC', '116 to 117 °C'),
  ('Cc1cc2c(-c3ccccc3Cl)c(NC(=O)Nc3cccc(C(F)(F)F)c3)c(=O)n(C)c2cc1C', '175 to 176 °C'),
  ('COc1ccc(-n2c(-c3ccc(Br)cc3)nc3c4ccccc4c4ccccc4c32)cc1', '239 °C'),
  ('COC(=O)c1cc2c3cc(C)ccc3n(C)c2s1', '152 to 155 °C'),
  ('Fc1ccc(-c2ccccc2)c(F)c1', '63 to 65 °C'),
  ('Cc1ccc(C(=O)NC(CCCCCl)C(=O)O)cc1 (stereo not given)', '177 to 181 °C');

Field request: melting point | item: Oc1ccc(Cn2cc[nH]c2=S)cc1F
161 to 165 °C

O=NSC1(CCO)C2CC3CC(C2)CC1C3 (stereo not given) ?
77 to 79 °C
